Each entry below carries its reported IC50.
# target: NLRP3 (Homo sapiens, UniProt Q96P20)
# Sequence (Q96P20 whole entry): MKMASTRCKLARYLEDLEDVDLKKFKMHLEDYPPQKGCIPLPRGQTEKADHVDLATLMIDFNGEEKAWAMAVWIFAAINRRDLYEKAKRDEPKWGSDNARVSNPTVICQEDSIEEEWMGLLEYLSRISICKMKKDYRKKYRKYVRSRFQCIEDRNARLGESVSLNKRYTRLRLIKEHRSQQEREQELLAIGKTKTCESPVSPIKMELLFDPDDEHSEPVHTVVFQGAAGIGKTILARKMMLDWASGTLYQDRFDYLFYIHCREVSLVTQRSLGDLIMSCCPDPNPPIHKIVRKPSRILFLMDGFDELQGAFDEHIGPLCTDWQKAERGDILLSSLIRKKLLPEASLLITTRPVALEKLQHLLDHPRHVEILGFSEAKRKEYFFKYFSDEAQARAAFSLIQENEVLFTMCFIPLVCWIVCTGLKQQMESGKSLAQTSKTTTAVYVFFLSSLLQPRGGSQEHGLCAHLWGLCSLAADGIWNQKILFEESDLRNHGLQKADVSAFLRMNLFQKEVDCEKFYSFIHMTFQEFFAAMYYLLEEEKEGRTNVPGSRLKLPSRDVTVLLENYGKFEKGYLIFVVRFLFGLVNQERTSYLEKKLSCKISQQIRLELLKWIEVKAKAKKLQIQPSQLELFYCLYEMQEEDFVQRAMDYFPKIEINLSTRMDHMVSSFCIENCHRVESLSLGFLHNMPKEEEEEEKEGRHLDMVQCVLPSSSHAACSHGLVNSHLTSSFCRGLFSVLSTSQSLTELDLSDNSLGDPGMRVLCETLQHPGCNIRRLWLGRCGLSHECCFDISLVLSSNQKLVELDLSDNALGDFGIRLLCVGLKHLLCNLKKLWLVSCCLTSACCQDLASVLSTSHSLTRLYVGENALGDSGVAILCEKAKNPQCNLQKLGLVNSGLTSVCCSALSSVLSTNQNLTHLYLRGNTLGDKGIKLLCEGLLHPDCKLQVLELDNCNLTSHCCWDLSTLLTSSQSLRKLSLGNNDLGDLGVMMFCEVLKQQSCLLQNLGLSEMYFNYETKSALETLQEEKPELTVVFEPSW
# run description: THP-1 cells pyroptosis assay
# Type: cell-based
# Parameters: Seed THP-1 cells (25,000 cells/well) containing 1.0 μg/ml LPS; host or cells: THP-1
# condition info: LPS 1.0 μg/ml, nigericin 5 μM, resazurin readout, 10 μM top dose (Example 2: top dose of 30 μM)

Below, each entry is followed by its recorded IC50 result.
molecule: CC(C)N(CCNS(=O)(=O)c1nnc(Nc2c3c(cc4c2CCC4)CCC3)[nH]1)C(C)C
IC50: ≤ 0.5 µM
//
molecule: COc1cc(-c2cc(F)cc(C(C)C)c2Nc2nnc(S(=O)(=O)N3CC4(CCN(C)C4)C3)[nH]2)ccn1
IC50: ≤ 0.5 µM
//
molecule: CN1CCOC2(C1)CN(S(=O)(=O)c1nnc(Nc3c4c(cc5c3CCC5)CCC4)[nH]1)C2
IC50: ≤ 0.5 µM
//
molecule: COc1cc(-c2ccc3c(c2Nc2nnc(S(=O)(=O)N4CCC5(CCCN5C)CC4)[nH]2)CCC3)ccn1
IC50: ≤ 0.5 µM
//
molecule: COc1cc(-c2ccc3c(c2Nc2nnc(S(=O)(=O)N4CC5(CCN(C)C5)C4)[nH]2)CCC3)ccn1
IC50: ≤ 0.5 µM

// IC50 (NLRP3 (Homo sapiens, UniProt Q96P20)) for `COC(=O)CN(CCN)S(=O)(=O)c1nnc(Nc2c3c(cc4c2CCC4)CCC3)[nH]1` = ≤ 10 µM
